assayed_target: T1, recombinant human Trop-2-his protein (ACCESSION NO.: NP_002344.2, AA 1-274) (human, UniProt P09758 27-274)
T1 construct: range 27-274; also called recombinant human Trop-2 protein; recombinant human Trop-2 extracellular domain; not shown: his tag
T1 sequence (looked up): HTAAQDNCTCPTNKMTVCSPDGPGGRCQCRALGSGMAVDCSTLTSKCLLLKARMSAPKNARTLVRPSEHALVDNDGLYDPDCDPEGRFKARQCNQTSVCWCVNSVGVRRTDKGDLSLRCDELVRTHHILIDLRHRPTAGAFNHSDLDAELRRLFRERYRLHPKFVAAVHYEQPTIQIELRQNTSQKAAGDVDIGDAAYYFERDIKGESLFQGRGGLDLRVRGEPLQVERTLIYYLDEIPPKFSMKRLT
method: BLI, antibody on AHC sensor, Trop-2-his 60 nM
pKd by entry:
Interpret pKd as the negative base-10 log of the concentration measured in mol/L.

Below, each entry is followed by its recorded pKd result.
binder	value_observed
h23-12-20 (antibody, human IgG1, kappa, V domains shown) VH: QVQLVQSGAEVKKPGASVKVSCKASGYTFTSYWMHWVRQAPGQGLEWMGEITPSDNYTSYNQKFKGRVTITRDTSTSTAYMELSSLRSEDTAVYYCARGEGNYVSFDYWGQGTLVTVSS VL: DIQMTQSPSSLSASVGDRVTITCRASQDISNYLNWYQQKPGKAPKLLIYYTSSLHSGVPSRFSGSGSGTDFTLTISSLQPEDFATYFCQQGYTLPPYTFGQGTKLEIKR	8.84
h23-12-14 (antibody, human IgG1, kappa, V domains shown) VH: QVQLVQSGAEVKKPGASVKVSCKASGYTFTSYWMHWVRQAPGQGLEWMGEITPSDNYTSYNQKFKGRVTITRDTSTSTAYMELSSLRSEDTAVYYCARGQGNYVSFDYWGQGTLVTVSS VL: DIQMTQSPSSLSASVGDRVTITCRASQDISNYLNWYQQKPGKAPKLLIYYASRLHSGVPSRFSGSGSGTDFTLTISSLQPEDFATYFCQQGYTLPPYTFGQGTKLEIKR	7.62
h23-12-36 (antibody, human IgG1, kappa, V domains shown) VH: QVQLVQSGAEVKKPGASVKVSCKASGYTFTSYWMHWVRQAPGQGLEWMGEITPSDNYTSYNQKFKGRVTITRDTSTSTAYMELSSLRSEDTAVYYCARGHGNYVSFDYWGQGTLVTVSS VL: DIQMTQSPSSLSASVGDRVTITCRASQDISNYLNWYQQKPGKAPKLLIYYTSRLHSGVPSRFSGSGSGTDFTLTISSLQPEDFATYFCQQYYTLPPYTFGQGTKLEIKR	8.06
h23-12-21 (antibody, human IgG1, kappa, V domains shown) VH: QVQLVQSGAEVKKPGASVKVSCKASGYTFTSYWMHWVRQAPGQGLEWMGEITPSDNYTSYNQKFKGRVTITRDTSTSTAYMELSSLRSEDTAVYYCARGQGNYVSFDYWGQGTLVTVSS VL: DIQMTQSPSSLSASVGDRVTITCRASQDISNYLNWYQQKPGKAPKLLIYYTSSLHSGVPSRFSGSGSGTDFTLTISSLQPEDFATYFCQQGYTLPPYTFGQGTKLEIKR	7.64
h23-12-17 (antibody, human IgG1, kappa, V domains shown) VH: QVQLVQSGAEVKKPGASVKVSCKASGYTFTSYWMHWVRQAPGQGLEWMGEITPSDGYTSYNQKFKGRVTITRDTSTSTAYMELSSLRSEDTAVYYCARGHGNYVSFDYWGQGTLVTVSS VL: DIQMTQSPSSLSASVGDRVTITCRASQDISNYLNWYQQKPGKAPKLLIYYTSSLHSGVPSRFSGSGSGTDFTLTISSLQPEDFATYFCQQGYTLPPYTFGQGTKLEIKR	7.55

Just so you know, measured pKd for h23-12-3 (antibody, human IgG1, kappa, V domains shown) VH: QVQLVQSGAEVKKPGASVKVSCKASGYTFTSYWMHWVRQAPGQGLEWMGEITPSDGYTSYNQKFKGRVTITRDTSTSTAYMELSSLRSEDTAVYYCARGHGNYVSFDYWGQGTLVTVSS VL: DIQMTQSPSSLSASVGDRVTITCRASQDISNYLNWYQQKPGKAPKLLIYYTSRLHSGVPSRFSGSGSGTDFTLTISSLQPEDFATYFCQQGYTLPPYTFGQGTKLEIKR came out at 7.82

Just so you know, measured pKd for h23-12-4 (antibody, human IgG1, kappa, V domains shown) VH: QVQLVQSGAEVKKPGASVKVSCKASGYTFTSYWMHWVRQAPGQGLEWMGEITPSDNYGSYNQKFKGRVTITRDTSTSTAYMELSSLRSEDTAVYYCARGHGNYVSFDYWGQGTLVTVSS VL: DIQMTQSPSSLSASVGDRVTITCRASQDISNYLNWYQQKPGKAPKLLIYYTSRLHSGVPSRFSGSGSGTDFTLTISSLQPEDFATYFCQQGYTLPPYTFGQGTKLEIKR came out at 9.08

Just so you know, measured pKd for h23-12-40 (antibody, human IgG1, kappa, V domains shown) VH: QVQLVQSGAEVKKPGASVKVSCKASGYTFTSYWMHWVRQAPGQGLEWMGEITPSDNYTSYAQKFKGRVTITRDTSTSTAYMELSSLRSEDTAVYYCARGHGNYVSFDYWGQGTLVTVSS VL: DIQMTQSPSSLSASVGDRVTITCRASQDISNYLNWYQQKPGKAPKLLIYYTSRLHSGVPSRFSGSGSGTDFTLTISSLQPEDFATYFCQQYYTLPPYTFGQGTKLEIKR came out at 8.67

Just so you know, measured pKd for h23-12-8 (antibody, human IgG1, kappa, V domains shown) VH: QVQLVQSGAEVKKPGASVKVSCKASGYTFTSYWMHWVRQAPGQGLEWMGEITPSDNYTSYNQKFKGRVTITRDTSTSTAYMELSSLRSEDTAVYYCARGHGNYVSFDYWGQGTLVTVSS VL: DIQMTQSPSSLSASVGDRVTITCRASQDISNYLNWYQQKPGKAPKLLIYYASRLHSGVPSRFSGSGSGTDFTLTISSLQPEDFATYFCQQGYTLPPYTFGQGTKLEIKR came out at 9.05

Just so you know, measured pKd for h23-12-26 (antibody, human IgG1, kappa, V domains shown) VH: QVQLVQSGAEVKKPGASVKVSCKASGYTFTSYWMHWVRQAPGQGLEWMGEITPSDNYTSYAQKFKGRVTITRDTSTSTAYMELSSLRSEDTAVYYCARGHGNYVSFDYWGQGTLVTVSS VL: DIQMTQSPSSLSASVGDRVTITCRASQDISNYLNWYQQKPGKAPKLLIYYTSRLESGVPSRFSGSGSGTDFTLTISSLQPEDFATYFCQQGYTLPPYTFGQGTKLEIKR came out at 8.27

Values were extracted from patent US20240092930A1.
